TEST METHOD NOTES: The amount of unchanged compound in urine collected at 0-54 hr after treatment
ASSAY CONDITIONS: rat
Let's look at some compounds and their measured dose excreted.
Report only the number, with the unit % understood.

The reported dose excreted of the compound O=[N+]([O-])c1cnc(/C=C/c2ccc3c(c2)OCO3)n1CCO was 3.4

response.value for CC(C)c1ncc([N+](=O)[O-])n1C (field: dose excreted) = 9.1

Note to self: dose excreted recorded for CN1CCN(Cc2ncc([N+](=O)[O-])n2C)CC1 was 45.5

The compound listed as Cc1ncc([N+](=O)[O-])n1CC(O)CCl (configuration not stated) has a reported dose excreted of 36.9

====

Test system: Rattus norvegicus
TEST METHOD NOTES: The total 36 hr urinary excretion of unchanged compound reported as log (percent X 10) of the administered dose
ASSAY CONDITIONS: in vivo
QUANTITY NAME: Log BR
In your answer, state the number alone without any accompanying words.

The cases that follow already have their Log BR on record.
Rattus norvegicus Log BR of Cc1ncc([N+](=O)[O-])n1CC(O)Cn1c([N+](=O)[O-])cnc1C is 2.358

Bench note, Rattus norvegicus: Cc1ncc([N+](=O)[O-])n1CC(O)CO (configuration not stated) , Log BR reads 2.808

Entry Cn1c([N+](=O)[O-])cnc1CO under Rattus norvegicus had Log BR of 2.754

Next:
Measured on Rattus norvegicus, CC(C)c1ncc([N+](=O)[O-])n1C has a documented Log BR of 1.96

For the compound Cc1ncc([N+](=O)[O-])n1CCO , the measured Log BR on Rattus norvegicus was 2.692

Let me check: Cc1ncc([N+](=O)[O-])n1CC(O)CCl (configuration not stated) , system Rattus norvegicus, measured Log BR is 2.471

Reading of Log BR for COC(=S)NCCn1c([N+](=O)[O-])cnc1C with Rattus norvegicus: 2.33

====

Tested on: Rattus norvegicus
TEST METHOD NOTES: The total 18 hr urinary excretion of unchanged compound reported as log (percent X 10) of the administered dose
ASSAY CONDITIONS: in vivo
QUANTITY NAME: Log BR
Response field accepts a number only; no unit should be typed.

For record Cn1c([N+](=O)[O-])cnc1/C=C(\Oc1ccccc1)C(=O)O the listed Log BR is 1.4

From here, focus on the item given below.
Log BR for Cc1ncc([N+](=O)[O-])n1CCS(C)(=O)=O is 2.401

====

TEST METHOD NOTES: The amount of unchanged compound in urine collected at 0-72 h after treatment
ASSAY CONDITIONS: rat
Lab note - cut at 20% for dose excreted: MET if strictly below, NOT MET if not.

INPUT: Please determine if Cc1ncc([N+](=O)[O-])n1CC(=O)Nc1ncccn1 is below 20% in terms of dose excreted.
OUTPUT: NOT MET

New cases:
INPUT: Bench note: check whether Cc1ncc([N+](=O)[O-])n1CC(O)Cn1c([N+](=O)[O-])cnc1C shows dose excreted below 20%
OUTPUT: NOT MET

INPUT: State whether 20% exceeds dose excreted recorded for Cn1c([N+](=O)[O-])cnc1CO .
OUTPUT: NOT MET

INPUT: Say whether its dose excreted is strictly beneath 20%. Entry: Cc1ncc([N+](=O)[O-])n1CCS(C)(=O)=O
OUTPUT: NOT MET

INPUT: Hi there! Is dose excreted for Cc1ncc([N+](=O)[O-])n1CC(O)CCl (stereo not drawn) [ORNIDAZOLE] below 20%, do you know?
OUTPUT: NOT MET

INPUT: Please let me know if Cn1c([N+](=O)[O-])cnc1/C=C/c1ccnc(N)n1 [AZANIDAZOLE] shows dose excreted below 20%.
OUTPUT: MET

INPUT: Consider Cn1c([N+](=O)[O-])cnc1C1CC1 . Does its dose excreted lie strictly below 20%?
OUTPUT: MET

INPUT: Confirm or reject: dose excreted of Cc1ncc([N+](=O)[O-])n1CC(=O)N1CCN(C(=O)Cn2c([N+](=O)[O-])cnc2C)CC1 lies strictly below 20%
OUTPUT: MET

Source of measurements: ChEMBL document CHEMBL1123508
